- Test system: Proto-oncogene tyrosine-protein kinase receptor Ret (Homo sapiens), P07949 [V804L]
- Sequence (P07949 whole entry V804L): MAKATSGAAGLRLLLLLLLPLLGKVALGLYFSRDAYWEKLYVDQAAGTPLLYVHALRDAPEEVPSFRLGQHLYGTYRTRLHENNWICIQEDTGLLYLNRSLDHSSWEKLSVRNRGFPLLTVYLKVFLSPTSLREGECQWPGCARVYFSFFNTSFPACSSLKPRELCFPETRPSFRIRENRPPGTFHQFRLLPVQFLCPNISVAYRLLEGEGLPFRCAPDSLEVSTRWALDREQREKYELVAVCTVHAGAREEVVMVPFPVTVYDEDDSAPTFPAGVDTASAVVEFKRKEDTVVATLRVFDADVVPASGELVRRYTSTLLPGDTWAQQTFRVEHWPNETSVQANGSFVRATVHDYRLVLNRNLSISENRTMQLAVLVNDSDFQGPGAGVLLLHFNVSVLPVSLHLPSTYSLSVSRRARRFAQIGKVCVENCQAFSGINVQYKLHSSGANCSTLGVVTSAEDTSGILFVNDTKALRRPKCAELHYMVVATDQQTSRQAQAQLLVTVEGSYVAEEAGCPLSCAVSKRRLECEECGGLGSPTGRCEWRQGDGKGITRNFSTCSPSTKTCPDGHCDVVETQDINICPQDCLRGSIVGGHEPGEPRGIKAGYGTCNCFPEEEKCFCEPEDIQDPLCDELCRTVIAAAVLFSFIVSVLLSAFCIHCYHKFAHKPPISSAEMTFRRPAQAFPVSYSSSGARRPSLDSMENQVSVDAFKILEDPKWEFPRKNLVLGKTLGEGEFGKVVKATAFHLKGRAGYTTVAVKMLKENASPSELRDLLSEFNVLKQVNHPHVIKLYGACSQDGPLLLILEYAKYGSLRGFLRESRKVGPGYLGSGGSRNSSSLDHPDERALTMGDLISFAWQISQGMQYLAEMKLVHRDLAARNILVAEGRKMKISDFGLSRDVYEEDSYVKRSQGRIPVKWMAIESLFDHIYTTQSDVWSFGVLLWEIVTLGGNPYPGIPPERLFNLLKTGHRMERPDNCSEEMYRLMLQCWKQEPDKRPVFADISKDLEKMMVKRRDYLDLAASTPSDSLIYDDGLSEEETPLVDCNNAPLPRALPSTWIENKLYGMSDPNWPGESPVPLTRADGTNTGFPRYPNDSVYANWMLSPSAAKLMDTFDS
- condition summary: at 1 µM
readout label: inhibition (%)

{"molecule": "Nc1ncnc2occ(-c3ccc(NC(=O)Nc4cc(C(F)(F)F)cc(C(F)(F)F)c4)cc3)c12", "tested on": "Proto-oncogene tyrosine-protein kinase receptor Ret (Homo sapiens), P07949 [V804L]", "readout label": "inhibition", "unit abbreviation": "%", "reported measurement": 77}
{"molecule": "O=C1NC(=O)C(c2ccccc2Cl)=C1Nc1cccc(O)c1", "tested on": "Proto-oncogene tyrosine-protein kinase receptor Ret (Homo sapiens), P07949 [V804L]", "readout label": "inhibition", "unit abbreviation": "%", "reported measurement": 2.98}
{"molecule": "Fc1cccc(COc2ccc(Nc3ncnc4cc(-c5ccc[nH]5)sc34)cc2Cl)c1", "tested on": "Proto-oncogene tyrosine-protein kinase receptor Ret (Homo sapiens), P07949 [V804L]", "readout label": "inhibition", "unit abbreviation": "%", "reported measurement": 8.38}
{"molecule": "CCn1c(-c2nonc2N)nc2c(C#CC(C)(C)O)nc(CN3CCCC3)cc21", "tested on": "Proto-oncogene tyrosine-protein kinase receptor Ret (Homo sapiens), P07949 [V804L]", "readout label": "inhibition", "unit abbreviation": "%", "reported measurement": 4.79}
{"molecule": "CCCN1CCC(Oc2cc(Nc3nc(Nc4cccc(F)c4C(N)=O)c4cc[nH]c4n3)c(OC)cc2Cl)CC1", "tested on": "Proto-oncogene tyrosine-protein kinase receptor Ret (Homo sapiens), P07949 [V804L]", "readout label": "inhibition", "unit abbreviation": "%", "reported measurement": 15.5}
{"molecule": "Cc1ccc(NC(=O)c2ccnc(N3CCCC3)c2)cc1-c1ccc(C(=O)NCC2CC2)cc1", "tested on": "Proto-oncogene tyrosine-protein kinase receptor Ret (Homo sapiens), P07949 [V804L]", "readout label": "inhibition", "unit abbreviation": "%", "reported measurement": 9.54}
{"molecule": "CC(=O)Nc1cccc(C#Cc2cncnc2Nc2ccc(OCc3cccc(F)c3)c(Cl)c2)n1", "tested on": "Proto-oncogene tyrosine-protein kinase receptor Ret (Homo sapiens), P07949 [V804L]", "readout label": "inhibition", "unit abbreviation": "%", "reported measurement": 10.2}
{"molecule": "CCN1CCC(CC(=O)Nc2n[nH]c3nc(-c4cccs4)c(Br)cc23)CC1", "tested on": "Proto-oncogene tyrosine-protein kinase receptor Ret (Homo sapiens), P07949 [V804L]", "readout label": "inhibition", "unit abbreviation": "%", "reported measurement": -2.04}
{"molecule": "CS(=O)(=O)CCNCc1nc(-c2ccc3ncnc(Nc4ccc(F)c(Cl)c4)c3c2)cs1", "tested on": "Proto-oncogene tyrosine-protein kinase receptor Ret (Homo sapiens), P07949 [V804L]", "readout label": "inhibition", "unit abbreviation": "%", "reported measurement": 11}
{"molecule": "COc1ccc(COc2ccc(Cc3cnc(N)nc3N)cc2OC)cc1", "tested on": "Proto-oncogene tyrosine-protein kinase receptor Ret (Homo sapiens), P07949 [V804L]", "readout label": "inhibition", "unit abbreviation": "%", "reported measurement": 9.69}
{"molecule": "CS(=O)(=O)CCNCc1ccc(-c2ccc3ncnc(Nc4ccc(OCc5cccc(F)c5)c(C(F)(F)F)c4)c3c2)o1", "tested on": "Proto-oncogene tyrosine-protein kinase receptor Ret (Homo sapiens), P07949 [V804L]", "readout label": "inhibition", "unit abbreviation": "%", "reported measurement": 4.58}
{"molecule": "CNC(=O)c1cncc(/C=C/c2c(Cl)cccc2Cl)c1", "tested on": "Proto-oncogene tyrosine-protein kinase receptor Ret (Homo sapiens), P07949 [V804L]", "readout label": "inhibition", "unit abbreviation": "%", "reported measurement": 10.2}
{"molecule": "CCCN1CCC=C(c2ccc(Nc3nc(Nc4ccccc4C(N)=O)c4cc[nH]c4n3)c(C)c2)C1", "tested on": "Proto-oncogene tyrosine-protein kinase receptor Ret (Homo sapiens), P07949 [V804L]", "readout label": "inhibition", "unit abbreviation": "%", "reported measurement": 58.3}
{"molecule": "CS(=O)(=O)CCNCc1ccc(-c2ccc3ncnc(Nc4ccc(OCc5ccccc5)c(Cl)c4)c3c2)o1", "tested on": "Proto-oncogene tyrosine-protein kinase receptor Ret (Homo sapiens), P07949 [V804L]", "readout label": "inhibition", "unit abbreviation": "%", "reported measurement": 12.4}
{"molecule": "O=C(Nc1n[nH]c2nc(-c3ccco3)c(Br)cc12)C1CC1", "tested on": "Proto-oncogene tyrosine-protein kinase receptor Ret (Homo sapiens), P07949 [V804L]", "readout label": "inhibition", "unit abbreviation": "%", "reported measurement": 0.95}
{"molecule": "CC1=C(C(=O)Nc2ccc3[nH]ncc3c2)C(c2ccc3ccccc3c2)CC(=O)N1 (stereo not given)", "tested on": "Proto-oncogene tyrosine-protein kinase receptor Ret (Homo sapiens), P07949 [V804L]", "readout label": "inhibition", "unit abbreviation": "%", "reported measurement": 53.2}
{"molecule": "COc1cc(C)c(NC(=O)CN(C)C)cc1Nc1nc(Nc2cccc(F)c2C(N)=O)c2cc[nH]c2n1", "tested on": "Proto-oncogene tyrosine-protein kinase receptor Ret (Homo sapiens), P07949 [V804L]", "readout label": "inhibition", "unit abbreviation": "%", "reported measurement": 20.7}
{"molecule": "N#Cc1c(NC(=O)c2cccc3ccccc23)sc2c1CCCC2", "tested on": "Proto-oncogene tyrosine-protein kinase receptor Ret (Homo sapiens), P07949 [V804L]", "readout label": "inhibition", "unit abbreviation": "%", "reported measurement": 3.6}
{"molecule": "O=C1Nc2ccc(C(=O)c3ccco3)cc2C1=Cc1cc(Cl)c(O)c(Cl)c1", "tested on": "Proto-oncogene tyrosine-protein kinase receptor Ret (Homo sapiens), P07949 [V804L]", "readout label": "inhibition", "unit abbreviation": "%", "reported measurement": 74.7}
{"molecule": "COc1cc(C=NNc2ncnc3c2cnn3-c2ccccc2)ccc1O", "tested on": "Proto-oncogene tyrosine-protein kinase receptor Ret (Homo sapiens), P07949 [V804L]", "readout label": "inhibition", "unit abbreviation": "%", "reported measurement": 46.3}
{"molecule": "Cc1cc(O)cc(C)c1/C=C/c1cncc(-c2nn[nH]n2)c1", "tested on": "Proto-oncogene tyrosine-protein kinase receptor Ret (Homo sapiens), P07949 [V804L]", "readout label": "inhibition", "unit abbreviation": "%", "reported measurement": 9.42}
{"molecule": "COc1cc2ncn(-c3cc(O[C@H](C)c4ccccc4Cl)c(C(N)=O)s3)c2cc1OC", "tested on": "Proto-oncogene tyrosine-protein kinase receptor Ret (Homo sapiens), P07949 [V804L]", "readout label": "inhibition", "unit abbreviation": "%", "reported measurement": 54.8}
{"molecule": "COc1ccc(-c2coc3ncnc(N)c23)cc1", "tested on": "Proto-oncogene tyrosine-protein kinase receptor Ret (Homo sapiens), P07949 [V804L]", "readout label": "inhibition", "unit abbreviation": "%", "reported measurement": 5.32}
{"molecule": "COc1ccc2cc(-c3c(-c4ccncc4)nc(-c4ccc([S+](C)[O-])cc4)n3C)ccc2c1 (stereo not given)", "tested on": "Proto-oncogene tyrosine-protein kinase receptor Ret (Homo sapiens), P07949 [V804L]", "readout label": "inhibition", "unit abbreviation": "%", "reported measurement": -0.15}
{"molecule": "NS(=O)(=O)c1ccc(N/N=C2\\C(=O)Nc3ccc(C(=O)NCCc4c[nH]cn4)cc32)cc1", "tested on": "Proto-oncogene tyrosine-protein kinase receptor Ret (Homo sapiens), P07949 [V804L]", "readout label": "inhibition", "unit abbreviation": "%", "reported measurement": 83.5}
{"molecule": "Nc1nc(-c2ccccn2)c(-c2ccc3ncccc3n2)s1", "tested on": "Proto-oncogene tyrosine-protein kinase receptor Ret (Homo sapiens), P07949 [V804L]", "readout label": "inhibition", "unit abbreviation": "%", "reported measurement": 5.95}
{"molecule": "COc1cc2ncn(-c3cc(O[C@@H](C)c4ccccc4Cl)c(C(N)=O)s3)c2cc1OC", "tested on": "Proto-oncogene tyrosine-protein kinase receptor Ret (Homo sapiens), P07949 [V804L]", "readout label": "inhibition", "unit abbreviation": "%", "reported measurement": 38.3}
{"molecule": "COc1cc2ncn(-c3cc(OCc4ccccc4Cl)c(C(N)=O)s3)c2cc1OC", "tested on": "Proto-oncogene tyrosine-protein kinase receptor Ret (Homo sapiens), P07949 [V804L]", "readout label": "inhibition", "unit abbreviation": "%", "reported measurement": 26.9}
{"molecule": "O=C1NC(=O)C(c2ccc(Cl)cc2)=C1Nc1ccc(Cl)c(C(=O)O)c1", "tested on": "Proto-oncogene tyrosine-protein kinase receptor Ret (Homo sapiens), P07949 [V804L]", "readout label": "inhibition", "unit abbreviation": "%", "reported measurement": -0.69}
{"molecule": "CCn1c(-c2nonc2N)nc2cnc(Oc3cccc(NC(=O)c4ccc(OCCN5CCOCC5)cc4)c3)cc21", "tested on": "Proto-oncogene tyrosine-protein kinase receptor Ret (Homo sapiens), P07949 [V804L]", "readout label": "inhibition", "unit abbreviation": "%", "reported measurement": 6.08}
